assay-text: Cytotoxicity against human HepG2 cells assessed as inhibition of cell growth at 20 uM measured after 48 hrs by MTT assay relative to control
Format: toxicity, cell-based
measured-attribute: inhibition at 48 h, 20 µM (%)
Reply numerically in %, unit not repeated.

>>> measurement("Fc1ccc2c(c1)nc(-c1ccc(Cl)cc1)c1[nH]ccc12")
2

Switching to the query record.
The recorded inhibition at 48 h, 20 µM for COc1ccc2c(c1)nc(CCc1ccccc1)c1[nH]ccc12 is 17

====

assay-text: Cytotoxicity against human HepG2 cells assessed as inhibition of cell growth at 5 uM measured after 48 hrs by MTT assay relative to control
Assay type: toxicity, cell-based
measured-attribute: inhibition at 48 h, 5 µM (%)
Give the quantity in %, number only.

COc1ccc2c(c1)nc(CCc1ccccc1)c1[nH]ccc12 yielded inhibition at 48 h, 5 µM of 1

According to the records, this compound Fc1ccc2c(c1)nc(-c1ccc(Cl)cc1)c1[nH]ccc12 displays inhibition at 48 h, 5 µM of 1

====

System: Mycobacterium tuberculosis
assay-text: Antitubercular activity against Mycobacterium tuberculosis H37Rv assessed as inhibition of bacterial growth measured after 8 days by Alamar blue assay
Type: functional
study-conditions: 192 h, time 8 day
measured-attribute: MIC
Note: a bare number is incomplete; add the unit.

Below, 3 compounds whose answers are already recorded.
>>> measurement("FC(F)(F)c1ccc2c(c1)nc(-c1ccc(Cl)cc1)c1[nH]ccc12")
"14.4 µM"
>>> measurement("c1ccc(CCc2nc3ccccc3c3cc[nH]c23)cc1")
"36.7 µM"
>>> measurement("Cc1ccc2c(c1)nc(C1CC1)c1[nH]ccc12")
"45 µM"

Okay, next one:
Entry Cn1ccc2c3ccccc3nc(-c3ccc(Cl)cc3)c21 , MIC reported as 17.1 µM

====

Tested on: Mycobacterium tuberculosis
assay-text: Antitubercular activity against Mycobacterium tuberculosis H37Rv assessed as inhibition of bacterial growth measured after 8 days by Alamar blue assay
Type: functional
study-conditions: 192 h, time 8 day
Recorded MIC by entry

Answered cases to consult:
>>> measurement("Fc1cccc(-c2c[nH]c3c(-c4ccc(Cl)cc4)nc4ccccc4c23)c1")
"26.8 µM"
>>> measurement("COC(=O)c1ccc2c(c1)nc(-c1ccc(Cl)cc1)c1[nH]ccc12")
"> 500 µM"
>>> measurement("Clc1ccc(-c2nc3cc(Cl)ccc3c3cc[nH]c23)cc1")
"16 µM"

For this compound ( Cc1ccc2c(c1)nc(-c1ccc(Cl)cc1)c1[nH]ccc12 ), measured MIC is 8.5 µM

Entry Fc1ccc2c(c1)nc(-c1ccc(Cl)cc1)c1c2ccn1CC1CC1 — recorded MIC = 14.2 µM

====

Tested on: Mycobacterium tuberculosis
assay-text: Antitubercular activity against Mycobacterium tuberculosis H37Rv assessed as inhibition of bacterial growth measured after 8 days by Alamar blue assay
Format: functional
study-conditions: 192 h, time 8 day
This section presents compounds with their documented MIC values.

Known results for compounds:
>>> measurement("COc1ccc2c(c1)nc(CCc1ccccc1)c1[nH]ccc12")
"4.1 µM"
>>> measurement("CC(C)Cc1nc2ccccc2c2cc[nH]c12")
"22.6 µM"
>>> measurement("Fc1ccc2c(c1)nc(CCc1ccccc1)c1[nH]ccc12")
"34.4 µM"

Below: the item to evaluate.
Field MIC (entry Clc1ccc(-c2nc3ccccc3c3c(Cl)c[nH]c23)cc1 ) reads 16 µM

Data origin, for the record: ChEMBL document CHEMBL5154763
